Readings of IC50 for the listed molecules
System: human P2X2/3 receptor (Homo sapiens (Human), UniProt P56373+Q9UBL9)
Sequence (Q9UBL9 whole entry): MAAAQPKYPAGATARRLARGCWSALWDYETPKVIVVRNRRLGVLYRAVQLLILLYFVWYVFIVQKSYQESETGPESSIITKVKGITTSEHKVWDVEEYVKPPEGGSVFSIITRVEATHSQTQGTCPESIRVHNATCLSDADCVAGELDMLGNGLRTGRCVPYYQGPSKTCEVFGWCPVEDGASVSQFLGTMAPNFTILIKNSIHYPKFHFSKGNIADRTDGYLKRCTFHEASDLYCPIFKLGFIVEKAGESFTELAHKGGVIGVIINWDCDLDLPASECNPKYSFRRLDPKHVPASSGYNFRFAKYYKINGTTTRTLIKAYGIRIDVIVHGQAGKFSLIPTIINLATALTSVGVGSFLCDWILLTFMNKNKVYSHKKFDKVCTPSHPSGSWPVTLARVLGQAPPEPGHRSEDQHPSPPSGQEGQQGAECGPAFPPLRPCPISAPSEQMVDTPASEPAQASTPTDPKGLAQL
Sequence (P56373 whole entry): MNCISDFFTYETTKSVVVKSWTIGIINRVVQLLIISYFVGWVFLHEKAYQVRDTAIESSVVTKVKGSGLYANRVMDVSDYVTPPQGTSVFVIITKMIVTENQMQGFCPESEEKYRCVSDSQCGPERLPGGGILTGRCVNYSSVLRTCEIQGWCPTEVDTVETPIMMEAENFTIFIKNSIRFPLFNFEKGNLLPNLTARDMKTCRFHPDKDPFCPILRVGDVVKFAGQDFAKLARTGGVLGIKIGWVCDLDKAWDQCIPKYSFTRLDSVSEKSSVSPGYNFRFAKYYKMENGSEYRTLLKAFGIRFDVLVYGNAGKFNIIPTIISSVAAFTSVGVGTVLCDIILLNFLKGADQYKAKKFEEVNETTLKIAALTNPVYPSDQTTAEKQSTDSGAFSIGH
Experiment Description: Inhibitory activity on human P2X2/3 receptor (calcium 6 dye FLIPR assay, agonist α,β-MeATP)
Reported Conditions: HEK293-P2X2/3 stably expressing cell line, FLIPR Tetra
I only need the number, in nM, no unit after it.

C=C(C)c1cnc(NC)cc1Oc1cnc(N)nc1N: 69
CC(C)c1cnc(C#Cc2cccc3cccnc23)cc1Oc1cnc(N)nc1N: 266

Q) In one line, give reported IC50 of the entry CC(C)CNc1nc(N)ncc1Oc1cc(C2CC2)ncc1C(C)C .
A) 446

###

Measured pIC50 of individual entries
System: human P2X3 receptor (Homo sapiens (Human), UniProt P56373)
Sequence (P56373 whole entry): as above
Experiment Description: Inhibitory activity on human P2X3 receptor (calcium 6 dye FLIPR assay, agonist α,β-MeATP)
Reported Conditions: HEK293-P2X3 stably expressing cell line, FLIPR Tetra
Reminder that pIC50 is minus the log10 of a molar concentration.

These solved cases illustrate the format of a correct answer.
COc1cc(Oc2cnc(N)nc2N)c(Br)cn1 [Compound C124]: 5.91
CC(C)Nc1nc(N)ncc1Oc1cc(Br)ncc1C(C)C [Compound C174]: 7.00
C#Cc1cc(Oc2cnc(N)nc2NC(C)C)c(C(C)C)cn1 [Compound C212]: 7.09
CC(C)c1c[n+]([O-])c(Br)cc1Oc1cnc(N)nc1N [C1]: 6.13
CC(C)c1cnc(CN)cc1Oc1cnc(N)nc1N [Compound C157]: 6.13

Q) Identify measured pIC50 associated with CC(C)c1cnc(Br)cc1Oc1cnc(NC(CO)CO)nc1N [Compound C111]
A) 6.98

Q) Supply reported pIC50 belonging to this compound: CC(C)c1cnc(Cl)cc1Oc1cnc(N)nc1N [Compound C3]
A) 6.69

Q) Please supply the value of reported pIC50 for the item Cc1cc(Sc2cnc(N)nc2N)c(C(C)C)cn1 [Compound C92]
A) 6.96

Q) Give recorded pIC50. CC(C)c1cnc(N(C)C)cc1Oc1cnc(N)nc1N [Compound C23]
A) 6.44

Q) Provide measured pIC50 value, entry: CC(C)c1cnc(Br)cc1Oc1cnc(N)nc1N[C@H](C)C1CC1 [Compound C182]
A) 6.17

Q) Please list pIC50 recorded for the compound CC(C)c1cnc(NCC(F)(F)F)cc1Oc1cnc(N)nc1N [Compound C152]
A) 6.68

Q) Provide one value: measured pIC50 of CCN(C)CCNc1nc(N)ncc1Oc1cc(Br)ncc1C(C)C [Compound C154]
A) 7.14

Q) Indicate the recorded pIC50 value for this compound: CC(C)c1cnc(C2CC2)cc1Oc1cnc(N)nc1N [Compound C52]
A) 6.83

Q) Supply pIC50 value. Item: CC(C)c1cnc(-c2cn[nH]c2)cc1Oc1cnc(N)nc1N [Compound C35]
A) 5.93

Q) Given COc1cc(OC)c(C#Cc2cc(Oc3cnc(N)nc3N)c(C(C)C)cn2)c(OC)c1 [Compound C145] , respond with its pIC50.
A) 6.09

Q) Entry CC(C)c1cnc(C#Cc2ccccn2)cc1Oc1cnc(N)nc1N [Compound C150] needs its pIC50 filled in; supply it.
A) 6.68

Q) Read off the recorded pIC50 for CC(C)c1cnc(Br)cc1Oc1cnc(N)nc1NC1CC1 [Compound C179]
A) 7.29

Q) Kindly indicate its recorded pIC50. Item: CC(C)c1cnc([Si](C)(C)C)cc1Oc1cnc(N)nc1N [Compound C133]
A) 5.84

Q) Identify the reported pIC50 for the following entry. CC(C)c1cnc(Br)cc1Oc1cnc(N)nc1NCCN(C)C [Compound C71]
A) 7.14

Q) Note down pIC50 recorded for CCc1cnc(OC)cc1Oc1cnc(N)nc1N [Compound C165]
A) 6.79

Q) Hello, please tell me recorded pIC50 for this one: CC(C)c1cnc(I)cc1Oc1cnc(N)nc1N [Compound C12]
A) 7.13

Q) Give pIC50 for the following compound: CC[C@@H](CO)Nc1nc(N)ncc1Oc1cc(Br)ncc1C(C)C [Compound C209]
A) 6.84

###

System: human P2X2/3 receptor (Homo sapiens (Human), UniProt P56373+Q9UBL9)
Experiment Description: Inhibitory activity on human P2X2/3 receptor (calcium 6 dye FLIPR assay, agonist α,β-MeATP)
Reported Conditions: HEK293-P2X2/3 stably expressing cell line, FLIPR Tetra
// log10 of IC50 lookup, one value per entry
# values: log10(IC50), units nM

// worked examples, log10 of IC50 included
CC(C)c1cnc(-c2ccco2)cc1Oc1cnc(N)nc1N: 2.39
CCc1cnc(OC)cc1Oc1cnc(N)nc1N: 2.53
CC(C)c1cnc(Cl)cc1Oc1cnc(NC(CO)CO)nc1N: 2.58

Q) Supply reported log10 of IC50 belonging to this compound: CC(C)c1cnc(Br)cc1Oc1cnc(N)nc1NNC(=O)OC(C)(C)C
A) 1.60

Q) // fetch log10 of IC50 given entry C=Cc1cc(Sc2cnc(N)nc2N)c(C(C)C)cn1
A) 2.21

Q) For CC(C)c1cnc(Br)cc1Oc1cnc(NC2CC2)nc1N , write its log10 of IC50.
A) 2.31

Q) Return reported log10 of IC50. Input compound: CC(C)c1cnc(C#Cc2ccccc2)cc1Oc1cnc(N)nc1N
A) 2.69

Q) Return reported log10 of IC50. Input compound: COc1cc(Oc2cnc(N)nc2N)c(C(C)C)cn1
A) 2.20

Q) Tell me its log10 of IC50 given CC(C)c1cnc(Br)cc1Oc1cnc(NCC(O)CO)nc1N (stereo not shown) as the entry.
A) 2.16

Q) Item CC(C)Nc1ncc(Oc2cc(Br)ncc2C(C)C)c(N)n1 : provide log10 of IC50
A) 2.12

Q) Output log10 of IC50 of C=C(C)c1cnc(SC)cc1Oc1cnc(N)nc1N
A) 2.03

Q) Specify log10 of IC50 for CC(C)c1cnc(Br)cc1Oc1cnc(N)nc1NCCOCCO and stop.
A) 2.70

Q) Report measured log10 of IC50; entry is C#Cc1cc(Oc2cnc(N)nc2N)c(C(C)C)cn1
A) 2.19

Q) Look up and report measured log10 of IC50 for this entry: CC(C)c1cnc(C#CC2CC2)cc1Oc1cnc(N)nc1N
A) 2.74

Q) Indicate the recorded log10 of IC50 value for this compound: COc1cc(Oc2cnc(N)nc2N)c(C2CC2)cn1
A) 2.42

Q) Answer with the recorded log10 of IC50 of CNc1cc(Oc2cnc(N)nc2N)c(C(C)C)cn1 only.
A) 1.76

Q) Return reported log10 of IC50. Input compound: CSc1cc(Oc2cnc(N)nc2NCCN(C)C)c(C(C)C)cn1
A) 1.95

Q) Find the measured log10 of IC50 of C#Cc1cc(Sc2cnc(N)nc2N)c(C(C)C)cn1 and report it.
A) 2.09

Q) Annotate the compound CC(C)c1cnc(Br)cc1Oc1cnc(N)nc1NCCN1CCCC1 with its measured log10 of IC50.
A) 2.60

Q) Read off the recorded log10 of IC50 for CC(C)c1cnc(Br)cc1Oc1cnc(N)nc1NC1CC1
A) 1.63

Q) Return the recorded log10 of IC50 value; entry: CNCCNc1nc(N)ncc1Oc1cc(Br)ncc1C(C)C
A) 2.22

Q) Give the reported log10 of IC50 for this compound. C#Cc1cc(Oc2cnc(NCC(O)CO)nc2N)c(C(C)C)cn1 (stereo not shown)
A) 2.05

Q) For C=Cc1cnc(OC)cc1Oc1cnc(N)nc1N , write its log10 of IC50.
A) 2.63

Q) Return log10 of IC50 for the following compound: C#Cc1cc(Oc2cnc(N)nc2NC(C)C)c(C(C)C)cn1
A) 2.09

###

System: human P2X3 receptor (Homo sapiens (Human))
Experiment Description: Inhibitory activity on human P2X3 receptor (calcium 6 dye FLIPR assay, agonist α,β-MeATP)
Reported Conditions: HEK293-P2X3 stably expressing cell line, FLIPR Tetra
// boundary case: IC50 equal to 300 nM maps to rule not met; strictly smaller maps to rule met

CC#Cc1cc(Oc2cnc(N)nc2N)c(C(C)C)cn1: rule not met
CNCCNc1nc(N)ncc1Oc1cc(Br)ncc1C(C)C: rule met
CC(C)CNc1nc(N)ncc1Oc1cc(C2CC2)ncc1C(C)C: rule not met
CC(C)c1cc(Oc2cnc(N)nc2N)c(C(C)C)cn1: rule not met

Q) Problem: For the compound COc1cc(Oc2cnc(N)nc2N)c(C2CC2)cn1 , is IC50 under 300 nM?
A) rule met

Q) Answer whether the compound CC(C)c1cnc(Br)cc1Oc1cnc(N)nc1NCCOCCO has IC50 strictly less than 300 nM
A) rule not met

Q) Please check: IC50 for CC(C)c1cnc(Br)cc1Oc1cnc(N)nc1NCCO , strictly under 300 nM or not?
A) rule met

Q) Please state whether IC50 is below 300 nM for CC(C)c1cnc(-n2cccc2)cc1Oc1cnc(N)nc1N
A) rule not met
